TARGET_ENTITY: T1, human IL-23 (human, UniProt Q9NPF7 20-189; P29460 23-328)
T1 construct: also called hIL-23; human recombinant IL-23
T1 sequence (looked up) 1: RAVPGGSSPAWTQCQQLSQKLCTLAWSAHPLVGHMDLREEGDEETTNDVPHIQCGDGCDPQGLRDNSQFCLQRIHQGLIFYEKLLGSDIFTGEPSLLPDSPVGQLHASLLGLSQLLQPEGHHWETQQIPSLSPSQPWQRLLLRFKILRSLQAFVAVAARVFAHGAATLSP
T1 sequence (looked up) 2: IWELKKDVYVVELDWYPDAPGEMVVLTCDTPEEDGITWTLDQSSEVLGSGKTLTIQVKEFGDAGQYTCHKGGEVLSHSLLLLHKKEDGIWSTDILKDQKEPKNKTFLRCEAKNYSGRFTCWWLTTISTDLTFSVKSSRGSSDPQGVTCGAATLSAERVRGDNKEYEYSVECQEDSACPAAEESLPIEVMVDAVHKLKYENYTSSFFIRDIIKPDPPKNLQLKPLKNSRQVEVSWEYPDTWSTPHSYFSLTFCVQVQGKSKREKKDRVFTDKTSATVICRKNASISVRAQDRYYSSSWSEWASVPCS
ASSAY_PROTOCOL: SPR, Adnectin captured by anti-His mAb, IL-23 injected
# koff per record follows
A number alone suffices; assume s⁻¹.

- BINDER: "1486C04 (designed binder, captured by anti-His mAb) MGVSDVPRDLEVVAATPTSLLISWGHYPMHVRYYRITYGETGGNSPVQEFTVPPHRYTATISGLKPGVDYTITVYAVTYYNEADYSQIPISINYRTEIDKPSQHHHHHH"
  VALUE_KIND: "koff"
  RESULT_UNITS: "s⁻¹"
  NUMBER: 0.000379
- BINDER: "1437A09 (designed binder, captured by anti-His mAb) MGVSDVPRDLEVVAATPTSLLISWGHYPMHVRYYRITYGETGGNSPVQEFTVPSKQHTATISGLKPGVDYTITVYAVTYYNEADYSQIPISINYRTEIDKPSQHHHHHH"
  VALUE_KIND: "koff"
  RESULT_UNITS: "s⁻¹"
  NUMBER: 0.00046
- BINDER: "1487D09 (designed binder, captured by anti-His mAb) MGVSDVPRDLEVVAATPTSLLISWGHYPMHIRYYRITYGETGGNSPVQEFTVPRSRHTATISGLKPGVDYTITVYAVTYYNEADYSQIPISINYRTEIDKPSQHHHHHH"
  VALUE_KIND: "koff"
  RESULT_UNITS: "s⁻¹"
  NUMBER: 0.00025
- BINDER: "1572F05 (designed binder, captured by anti-His mAb) MGVSDVPRDLEVVAATPTSLLISWGHYPLHIRYYRITYGETGGNSPVQEFTVPRQKYTATISGLKPGVDYTITVYAVTYYNEADYSQIPISINYRTEIDKPSQHHHHHH"
  VALUE_KIND: "koff"
  RESULT_UNITS: "s⁻¹"
  NUMBER: 0.000285
- BINDER: "1490H08 (designed binder, captured by anti-His mAb) MGVSDVPRDLEVVAATPTSLLISWGHYPLHIRYYRITYGETGGNSPVQEFTVPNTSHTATISGLKPGVDYTITVYAVTYYNEADYSQIPISINYRTEIDKPSQHHHHHH"
  VALUE_KIND: "koff"
  RESULT_UNITS: "s⁻¹"
  NUMBER: 0.000587

## Input State the recorded koff for this entry: 1572D04 (designed binder, captured by anti-His mAb) MGVSDVPRDLEVVAATPTSLLISWGHYPMHVRYYRITYGETGGNSPVQEFTVPPRRYTATISGLKPGVDYTITVYAVTYYEQPIYATIPISINYRTEIDKPSQHHHHHH
## Output 0.000294

## Input State the recorded koff for this entry: 1437G04 (designed binder, captured by anti-His mAb) MGVSDVPRDLEVVAATPTSLLISWGHYPLHVRYYRITYGETGGNSPVQEFTVPYYHYTATISGLKPGVDYTITVYAVTYYNEADYSQIPISINYRTEIDKPSQHHHHHH
## Output 0.000446

## Input State the recorded koff for this entry: 1572H05 (designed binder, captured by anti-His mAb) MGVSDVPRDLEVVAATPTSLLISWGHYPLHIRYYRITYGETGGNSPVQEFTVPRSKYTATISGLKPGVDYTITVYAVTYYEQVEYREIPISINYRTEIDKPSQHHHHHH
## Output 0.00023

## Input State the recorded koff for this entry: 1571H03 (designed binder, captured by anti-His mAb) MGVSDVPRDLEVVAATPTSLLISWGHYPLHVRYYRITYGETGGNSPVQEFTVPNRVYTATISGLKPGVDYTITVYAVTYYAQEEYHIIPISINYRTEIDKPSQHHHHHH
## Output 0.000395

## Input State the recorded koff for this entry: 1486D04 (designed binder, captured by anti-His mAb) MGVSDVPRDLEVVAATPTSLLISWGHYPLHIRYYRITYGETGGNSPVQEFTVPRSTHTATISGLKPGVDYTITVYAVTYYNEADYSQIPISINYRTEIDKPSQHHHHHH
## Output 0.000352

## Input State the recorded koff for this entry: 1550C05 (designed binder, captured by anti-His mAb) MGVSDVPRDLEVVAATPTSLLISWGHYPMHVRYYRITYGETGGNSPVQEFTVPPRRYTATISGLKPGVDYTITVYAVTYYNEADYSQIPISINYRTEIDKPSQHHHHHH
## Output 0.000135

## Input State the recorded koff for this entry: 1490C07 (designed binder, captured by anti-His mAb) MGVSDVPRDLEVVAATPTSLLISWGHYPLHVRYYRITYGETGGNSPVQEFTVPSNRYTATISGLKPGVDYTITVYAVTYYNEADYSQIPISINYRTEIDKPSQHHHHHH
## Output 0.000426
